Sourced from the supplement of paper PMC9170038

Overview of recorded apparent KD of MS2 coat protein for various sequences
# Tested on: MS2 coat protein
# protocol_details: apparent KD of MS2 coat protein; designed switch direction (-1 OFF switch, 1 ON switch): -1; higher = weaker reporter binding
# stated_conditions: input ligand: none
# number then unit; no other words

Worked examples follow.
CUUUUGUGAGGAUAUGGUAACGUUUACAUGAGGAUCACCCAUGUUUCAUGGGACUUGAGACUAGAAGGCACUAACG [JR_Ex5_Sub027] (Eterna round: R97, puzzle: Exclusion 5) : 823 nM
GAAACCAGAGGAUAUGCGAAUAAAUAAAACUUUUUUUUUUAACAUGAGGAUCACCCAUGUAGAAGGCUGCAAAG [Ex2 #35] (Eterna round: R97, puzzle: Exclusion 2) : 31 nM
AUUUUGUGAGGAUAUGGUAACGUUUACAUGAGGAUCACCCAUGUUUCAUGGGACUAGAGACUAGAAGGCACUAACG [JR_Ex5_Sub028] (Eterna round: R97, puzzle: Exclusion 5) : 279 nM
GCAGUAUGAGUUAGGAUAUGAUGAUUUUUUUUAUUUCAGAAGGAACUUGAGGAUCACCCAAGUUAAGAUUUGGU [JR_BMEx4_Sub068] (Eterna round: R97, puzzle: Brourd's mod of Exclusion 4) : 24.6 nM

In: What value of measured apparent KD of MS2 coat protein is listed for GAUCAACAUGAGGAUCACCCAUGUGAGGAUAUAGACCUAAGGCGCAAGCUAUGGGACUCUAGAAGGCGCGGAAU [Eternabot (L2) Solution 93] (Eterna round: R97, puzzle: Exclusion 1) ?
Out: 36.6 nM

###

# Tested on: MS2 coat protein
# protocol_details: apparent KD of MS2 coat protein; designed switch direction (-1 OFF switch, 1 ON switch): 1; higher = weaker reporter binding
# stated_conditions: input ligand: none
measurement_kind: apparent KD of MS2 coat protein (nM)
Give the value in nM but do not write nM after it.

These recorded examples may help you get a feel for the data.
UGUUGUAUUACAGGAUAUCUAUUGUUUUUAUGUAGAGAAGGGUAUUCACAUGAGGAUCACCCAUGUAUAUACGAGGAAGUUGUG [JMF's solution 85] (Eterna round: R96, puzzle: Same State NG 1) : 48.8
UUGCUCGUGUGAGGAUAUGCAGCCGUUUCGGCUGCAGAAGGUACUAUAAUACAUGAGGAUCACCCAUGUCUCUGUUGUUUUGUG [salish99_SSNG1_r04_929] (Eterna round: R96, puzzle: Same State NG 1) : 25.4
CUAAAAGGAUGAGGAUAUGCAGAGGAUCACCCUGUAGAAGGCAACAGAUGAGGAUAUGCAGAGGAUCACCCUGUAGAAGGCAAC [pwkr ssNG DX.2] (Eterna round: R96, puzzle: Same State NG 1) : 94.1
GUGGUCAGACAUGAGGAUCACCCAUGUGGAAUAAAUAAGGUUUAGGAUAUGGAAUAUAGGAUAUACCAGAAGGAAAGGUUGGUG (Eterna round: R96, puzzle: Same State NG 3) : 133

Attention now shifts to the item below.
In: So what's the measured apparent KD of MS2 coat protein for this one? ACAAGCUUUUCUGUAUUGAAAGGUGGGAUACAUGAGGAUCACCCAUGUUUUUUUGUUUAUUUUUUUCCUCGUCUUAU [JR_SHM208A_Sub088] (Eterna round: R96, puzzle: Sensor for hsa-mir-208a)
Out: 37.2
